Reference source for all entries: the supplement of paper PMC11061612

Hi there, I'd appreciate the recorded combination Emax for every entry that follows.
Tested on: VCaP (Prostate Carcinoma)
Assay: combination Emax (second highest fraction inhibited in the dose matrix, 72 h); higher = more inhibition; extreme values may be limits of the assay
Numbers only.

[
  {
    "compound": "CC1(C)CCC(CN2CCN(c3ccc(C(=O)NS(=O)(=O)c4ccc(NCC5CCOCC5)c([N+](=O)[O-])c4)c(Oc4cnc5[nH]ccc5c4)c3)CC2)=C(c2ccc(Cl)cc2)C1 [Venetoclax] + C[C@@H]1COCCN1C2=NC(=NC(=C2)C3(CC3)[S@](=N)(=O)C)C4=C5C=CNC5=NC=C4 [AZD6738] (first compound max 1 µM, 7x7, partner max 10 µM)",
    "target system": "VCaP (Prostate Carcinoma)",
    "readout label": "combination Emax",
    "reported result": 0.428
  }
]

Which combination Emax value is on record for COc1nnc2ccc(N3CCC(c4ccc(OCCN5CCN(C)C(=O)[C@H]5C)cc4)CC3)nn12 [AZD5153] + C=CCn1c(=O)c2cnc(Nc3ccc(N4CCN(C)CC4)cc3)nc2n1-c1cccc(C(C)(C)O)n1 [AZD1775] (first compound max 1 µM, partner max 1 µM) ?
0.767
